Catalogue of molecules with associated clearance
- protocolNotes: Clearance in Sprague-Dawley rat at 1 mg/kg, iv
- Format: ADME, organism-based
- Parameters: dose 1 mg/kg, route intravenous
- recordedConditions: in vivo

smilesStr: CN(C)CCOc1ccc(-c2[nH]c3ncnc(NCC4SCCS4)c3c2-c2ccccc2)cc1
clearance (mL/min/kg): 125
//
smilesStr: c1ccc(-c2c(-c3ccc(OCCN4CCCC4)cc3)[nH]c3ncnc(NCC4SCCS4)c23)cc1
clearance (mL/min/kg): 113

----------
- experimentalSystem: Tyrosine-protein kinase JAK3 (Homo sapiens, UniProt P52333)
- Sequence (P52333 whole entry): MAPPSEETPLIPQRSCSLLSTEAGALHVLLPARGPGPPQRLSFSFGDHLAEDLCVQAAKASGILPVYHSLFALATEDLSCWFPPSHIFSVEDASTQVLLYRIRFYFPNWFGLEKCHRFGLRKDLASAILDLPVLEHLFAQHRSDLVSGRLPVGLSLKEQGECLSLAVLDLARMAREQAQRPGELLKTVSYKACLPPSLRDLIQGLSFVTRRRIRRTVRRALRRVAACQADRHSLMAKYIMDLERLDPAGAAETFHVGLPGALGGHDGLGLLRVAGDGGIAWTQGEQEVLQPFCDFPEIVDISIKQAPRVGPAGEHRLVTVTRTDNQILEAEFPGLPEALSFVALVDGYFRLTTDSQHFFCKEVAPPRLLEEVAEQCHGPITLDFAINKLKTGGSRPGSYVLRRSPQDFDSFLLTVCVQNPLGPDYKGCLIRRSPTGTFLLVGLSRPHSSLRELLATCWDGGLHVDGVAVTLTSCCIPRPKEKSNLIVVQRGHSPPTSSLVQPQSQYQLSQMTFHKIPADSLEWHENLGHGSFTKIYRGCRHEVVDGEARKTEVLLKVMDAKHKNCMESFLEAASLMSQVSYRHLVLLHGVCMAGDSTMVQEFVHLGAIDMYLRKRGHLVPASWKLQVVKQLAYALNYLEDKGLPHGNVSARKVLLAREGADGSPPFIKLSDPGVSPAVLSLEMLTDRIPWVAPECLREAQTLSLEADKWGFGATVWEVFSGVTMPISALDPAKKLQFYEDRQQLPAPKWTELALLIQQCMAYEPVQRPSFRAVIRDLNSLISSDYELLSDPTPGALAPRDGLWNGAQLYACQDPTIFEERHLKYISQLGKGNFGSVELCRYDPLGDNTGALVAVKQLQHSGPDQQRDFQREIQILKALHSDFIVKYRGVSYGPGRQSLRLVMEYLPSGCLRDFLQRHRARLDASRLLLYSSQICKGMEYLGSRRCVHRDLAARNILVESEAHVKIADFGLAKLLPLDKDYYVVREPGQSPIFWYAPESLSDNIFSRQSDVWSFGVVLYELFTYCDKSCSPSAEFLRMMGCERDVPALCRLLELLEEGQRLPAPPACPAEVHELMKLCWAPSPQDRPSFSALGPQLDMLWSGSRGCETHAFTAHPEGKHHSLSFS
- protocolNotes: Inhibition of JAK3
pKi: −log10 of the molar value.

smilesStr: c1ccc(-c2c(-c3ccc(OCCN4CCCC4)cc3)[nH]c3ncnc(NCC4SCCS4)c23)cc1
pKi: 8.19

----------
- experimentalSystem: Activated CDC42 kinase 1 (Homo sapiens)
- protocolNotes: Inhibition of N-terminal His6-tagged ACK1 expressed in baculovirus infected Hi5 cells assessed as inhibition of autophosphorylation after 2 hrs by ELISA
- Design: species or system BTI-TN-5B1-4
pKi: −log10 of the molar value.
Decide using pKi: a value greater than or equal to 7 is class 1, a smaller one is class 0.

compound: CNS(=O)(=O)c1ccc(-c2[nH]c3ncnc(NC[C@@H]4CCCO4)c3c2-c2ccccc2)cc1
discreteLabel: class 1
//
compound: COc1ccc(-c2[nH]c3ncnc(NC[C@@H]4CCCO4)c3c2-c2ccccc2)cc1
discreteLabel: class 1
//
compound: CN(C)CCOc1ccc(-c2oc3ncnc(NCC4CCCS4)c3c2-c2ccccc2)cc1 (racemic)
discreteLabel: class 1
//
compound: O=C1CCCN1CCOc1ccc(-c2[nH]c3ncnc(NC[C@@H]4CCCO4)c3c2-c2ccccc2)cc1
discreteLabel: class 1
//
compound: CO[C@@H]1CCC[C@@H]1CNc1ncnc2[nH]c(-c3ccc(OCCN(C)C)cc3)c(-c3ccccc3)c12
discreteLabel: class 1
//
compound: c1ccc(-c2c(-c3ccc(OCCN4CCOCC4)cc3)oc3ncnc(NC[C@@H]4CCCO4)c23)cc1
discreteLabel: class 1
//
compound: c1ccc(-c2nc3ncnc(NC[C@@H]4CCCO4)c3n2-c2ccccc2)cc1
discreteLabel: class 0
//
compound: c1ccc(-c2nc3ncnc(NC[C@@H]4CCCO4)n3c2-c2ccccc2)cc1
discreteLabel: class 0

----------
- experimentalSystem: Activated CDC42 kinase 1 (Homo sapiens, UniProt Q07912)
- Sequence (Q07912 whole entry): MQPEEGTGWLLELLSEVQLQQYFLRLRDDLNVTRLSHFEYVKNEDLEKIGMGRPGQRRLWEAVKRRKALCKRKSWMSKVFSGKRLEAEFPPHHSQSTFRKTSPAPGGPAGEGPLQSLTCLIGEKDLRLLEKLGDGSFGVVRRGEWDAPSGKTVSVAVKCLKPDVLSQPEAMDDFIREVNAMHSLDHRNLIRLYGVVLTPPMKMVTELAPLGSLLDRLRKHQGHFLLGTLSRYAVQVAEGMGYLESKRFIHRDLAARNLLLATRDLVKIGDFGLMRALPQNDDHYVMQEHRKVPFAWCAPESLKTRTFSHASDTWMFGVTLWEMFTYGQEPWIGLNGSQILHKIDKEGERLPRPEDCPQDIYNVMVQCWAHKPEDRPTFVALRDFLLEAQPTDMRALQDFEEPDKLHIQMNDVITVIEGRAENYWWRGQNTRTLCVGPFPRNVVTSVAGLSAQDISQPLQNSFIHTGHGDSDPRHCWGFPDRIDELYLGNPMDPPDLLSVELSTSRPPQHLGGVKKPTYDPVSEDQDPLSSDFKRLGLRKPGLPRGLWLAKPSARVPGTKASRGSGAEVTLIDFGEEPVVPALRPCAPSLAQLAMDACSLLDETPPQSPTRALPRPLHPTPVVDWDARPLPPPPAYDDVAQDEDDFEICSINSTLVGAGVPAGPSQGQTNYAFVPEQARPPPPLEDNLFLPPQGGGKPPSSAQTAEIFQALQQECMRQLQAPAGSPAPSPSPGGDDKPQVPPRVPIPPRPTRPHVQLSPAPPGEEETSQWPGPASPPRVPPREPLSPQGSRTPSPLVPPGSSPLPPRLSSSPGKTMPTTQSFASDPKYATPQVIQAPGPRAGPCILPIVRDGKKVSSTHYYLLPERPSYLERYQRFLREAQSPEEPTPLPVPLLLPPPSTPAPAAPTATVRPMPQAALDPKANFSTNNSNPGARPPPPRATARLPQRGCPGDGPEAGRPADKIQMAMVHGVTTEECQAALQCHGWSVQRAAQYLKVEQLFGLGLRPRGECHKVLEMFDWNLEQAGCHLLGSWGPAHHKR
- protocolNotes: Inhibition of N-terminal His6-tagged ACK1 expressed in baculovirus infected Hi5 cells assessed as inhibition of autophosphorylation after 2 hrs by ELISA
- Design: species or system BTI-TN-5B1-4
Output T for records whose Ki is lower than 7 nM, F for records at or above 7 nM.

molecule: c1ccc(-c2oc3nccc(NC[C@@H]4CCCO4)c3c2-c2ccccc2)cc1
discreteLabel: F

molecule: c1ccc(-c2c(-c3ccc(OCCN4CCCC4)cc3)[nH]c3ncnc(NCC4SCCS4)c23)cc1
discreteLabel: T

molecule: CN(C)CCOc1ccc(-c2[nH]c3ncnc(NC[C@@H]4CCCO4)c3c2C2=CCCCC2)cc1
discreteLabel: F

molecule: c1ccc(-c2c(-c3ccc(OCCN4CCOCC4)cc3)[nH]c3ncnc(NC[C@@H]4CCCO4)c23)cc1
discreteLabel: T

molecule: CNC(=O)c1ccc(-c2oc3ncnc(NC[C@@H]4CCCO4)c3c2-c2ccccc2)cc1
discreteLabel: F

molecule: CN(C)CCOc1ccc(-c2[nH]c3ncnc(NC[C@@H]4CCCO4)c3c2C2=CCCC2)cc1
discreteLabel: F

molecule: CO[C@@H]1CC[C@H]1CNc1ncnc2[nH]c(-c3ccc(OCCN(C)C)cc3)c(-c3ccccc3)c12 (racemic)
discreteLabel: F

molecule: CN(C)CCOc1ccc(-c2oc3ncnc(NCC4SCCS4)c3c2-c2ccccc2)cc1
discreteLabel: T

molecule: c1cncc(-c2c(-c3ccc(OCCN4CCCC4)cc3)[nH]c3ncnc(NC[C@@H]4CCCO4)c23)c1
discreteLabel: F

molecule: CNS(=O)(=O)c1ccc(-c2oc3ncnc(NC[C@@H]4CCCO4)c3c2-c2ccccc2)cc1
discreteLabel: T

molecule: CN(C)CCOc1ccc(-c2[nH]c3ncnc(NC[C@@H]4CC[C@H]4O)c3c2-c2ccccc2)cc1 (racemic)
discreteLabel: F

molecule: CN(C)CCOc1ccc(-c2oc3ncnc(NC[C@@H]4CCCO4)c3c2-c2ccccc2)cc1
discreteLabel: T

molecule: Fc1ccccc1-c1c(-c2ccc(OCCN3CCCC3)cc2)[nH]c2ncnc(NC[C@@H]3CCCO3)c12
discreteLabel: T

molecule: CN(C)CCOc1ccc(-c2oc3ncnc(NCC4OCCO4)c3c2-c2ccccc2)cc1
discreteLabel: F

molecule: CN(C)C(=O)c1ccc(-c2[nH]c3ncnc(NC[C@@H]4CCCO4)c3c2-c2ccccc2)cc1
discreteLabel: T

molecule: CN(C)CCOc1ccc(-c2oc3ncnc(NCC4SCCCS4)c3c2-c2ccccc2)cc1
discreteLabel: T

molecule: CN(C)C(=O)c1ccc(-c2oc3ncnc(NC[C@@H]4CCCO4)c3c2-c2ccccc2)cc1
discreteLabel: F
